Values compiled from patent US9238039B2.

System: RSV strain A2
Assay: RSV antiviral cytoprotection assay in Hep2 cells (96-well and 384-well format, Cell TiterGlo read-out)
Format: cell-based, Respiratory Syncytial Virus (RSV)
Conditions: human respiratory syncytial virus, HEp-2, 0.5 uM; RSV-induced cytopathic effect in Hep2 cells; calculated from fitted dose response curve, normalized to 0% and 100%
Each item that follows carries a reported inhibition at 0.5 µM.
Write down the numeric answer in % and omit the unit.

Below are worked cases with known answers.
Cc1cc(C2CC2)nc2cc([C@@H]3CCCCN3C(=O)c3cc(Cl)ccc3NS(C)(=O)=O)nn12 ... 100
Cc1cn2nc([C@@H]3CCCCN3C(=O)c3ccc(C4CC4)cc3)cc2nc1N1CC[C@H](N)C1 ... 100
CC(=O)Nc1c(C)c(C)nc2cc([C@@H]3CCCCN3C(=O)c3cc(C)ccc3NS(C)(=O)=O)nn12 ... 98
Cc1cn2nc([C@@H]3CC[C@H](C)CN3C(=O)c3cc(Cl)ccc3NS(C)(=O)=O)cc2nc1N1CC(N)C1 ... 100
COc1ccsc1C(=O)N1CCCC[C@H]1c1cc2nc(N3CC[C@H](N)C3)c(C)cn2n1 ... 100

// moving on: another record for inhibition at 0.5 µM
Request: Could you tell me which inhibition at 0.5 µM is on file for Cc1[nH]c2cc([C@@H]3CCCCN3C(=O)c3cc(F)cc(Cl)c3NS(C)(=O)=O)nn2c(=O)c1C ?
Response: 99

====

Each item that follows carries a reported inhibition at 0.5 µM.
Tested on: RSV strain A2
Test: RSV antiviral cytoprotection assay in Hep2 cells (96-well and 384-well format, Cell TiterGlo read-out)
Assay type: cell-based, Respiratory Syncytial Virus (RSV)
Settings: human respiratory syncytial virus, HEp-2, 0.5 uM; RSV-induced cytopathic effect in Hep2 cells; calculated from fitted dose response curve, normalized to 0% and 100%
Write down the numeric answer in % and omit the unit.

Cc1cn2nc([C@@H]3CCCCN3C(=O)c3cncc(Cl)c3)cc2nc1N1CC[C@H](N)C1 ... 100
Cc1cn2nc([C@@H]3CCCCN3C(=O)c3cscn3)cc2nc1N1CC[C@H](N)C1 ... 82
Cc1ccc(NS(C)(=O)=O)c(C(=O)N2CCCC[C@H]2c2cc3nc(C)c(C)c(C#N)n3n2)c1 ... 98
Cc1cn2nc([C@@H]3CCCCN3C(=O)c3cc(Cl)ccc3NC(=O)OC(C)C)cc2nc1N1CC[C@H](N)C1 ... 86

Request: Any idea what inhibition at 0.5 µM came out for Cc1cn2nc([C@@H]3CCCCN3C(=O)c3cc(-c4cccs4)n[nH]3)cc2nc1N1CC[C@H](N)C1 on RSV strain A2?
Response: 100

Request: Any idea what inhibition at 0.5 µM came out for CCc1c(C)[nH]c2cc([C@@H]3CCCCN3C(=O)c3cc(F)ccc3NS(C)(=O)=O)nn2c1=O on RSV strain A2?
Response: 73

Request: Any idea what inhibition at 0.5 µM came out for Cc1ccc(C(=O)N2CCCC[C@H]2c2cc3nc(N4CC[C@H](N)C4)c(C)cn3n2)cc1Cl on RSV strain A2?
Response: 100

====

Tested on: RSV strain A2
Assay: RSV antiviral cytoprotection assay in Hep2 cells (96-well and 384-well format, Cell TiterGlo read-out)
Assay type: cell-based, Respiratory Syncytial Virus (RSV)
Conditions: human respiratory syncytial virus, HEp-2, 0.5 uM; RSV-induced cytopathic effect in Hep2 cells; calculated from fitted dose response curve, normalized to 0% and 100%
Endpoint name: inhibition at 0.5 µM (%)
Write down the numeric answer in % and omit the unit.

Below are worked cases with known answers.
Cc1cc(C2CC2)nc2cc([C@@H]3CCCCN3C(=O)C(NC(=O)OC(C)(C)C)c3ccccc3)nn12 (stereo partly shown) ... 72
Cc1[nH]c2cc([C@@H]3CCCCN3C(=O)c3ccccc3NC(=O)C3CC3)nn2c(=O)c1C ... 96
Cc1cc(Cl)cc(C(=O)N2CCCC[C@H]2c2cc3[nH]c(C)c(C)c(=O)n3n2)c1NS(C)(=O)=O ... 100
Cc1ccc(NS(C)(=O)=O)c(C(=O)N2CCCC[C@H]2c2cc3nc(N4CC(N)C4)c(C)cn3n2)c1 ... 100

Request: Could you tell me which inhibition at 0.5 µM is on file for Cc1cn2nc([C@@H]3CCCCN3C(=O)c3cc(Cl)ccc3NS(C)(=O)=O)cc2nc1-c1ccccc1 ?
Response: 98

Request: Could you tell me which inhibition at 0.5 µM is on file for Cc1cc(C(=O)N2CCCC[C@H]2c2cc3nc(N4CC[C@H](N)C4)c(C)cn3n2)c(C(F)(F)F)o1 ?
Response: 100

Request: Could you tell me which inhibition at 0.5 µM is on file for Cc1cn2nc([C@@H]3CCCCN3C(=O)c3ccc(C(N)=O)s3)cc2nc1N1CC[C@H](N)C1 ?
Response: 78

Request: Could you tell me which inhibition at 0.5 µM is on file for CS(=O)(=O)Nc1ccc(Cl)cc1C(=O)N1CCCC[C@H]1c1cc2nc(C3CCC3)cc(N3CCOCC3)n2n1 ?
Response: 99

Request: Could you tell me which inhibition at 0.5 µM is on file for Cc1cn2nc([C@@H]3CCCCN3C(=O)c3cccnc3F)cc2nc1N1CC[C@H](N)C1 ?
Response: 100

Request: Could you tell me which inhibition at 0.5 µM is on file for CS(=O)(=O)Nc1ccc(Br)cc1C(=O)N1CCCC[C@H]1c1cc2nc(N3CC(O)C3)cc(N3CCOCC3)n2n1 ?
Response: 100

Request: Could you tell me which inhibition at 0.5 µM is on file for Cc1cn2nc([C@@H]3CCCCN3C(=O)c3cc(Cl)ccc3NS(C)(=O)=O)cc2nc1N1CC[C@@H](C)C1 ?
Response: 98
